STUDY TARGET: CYP2B6 (Homo sapiens)
Sequence (P20813 whole entry): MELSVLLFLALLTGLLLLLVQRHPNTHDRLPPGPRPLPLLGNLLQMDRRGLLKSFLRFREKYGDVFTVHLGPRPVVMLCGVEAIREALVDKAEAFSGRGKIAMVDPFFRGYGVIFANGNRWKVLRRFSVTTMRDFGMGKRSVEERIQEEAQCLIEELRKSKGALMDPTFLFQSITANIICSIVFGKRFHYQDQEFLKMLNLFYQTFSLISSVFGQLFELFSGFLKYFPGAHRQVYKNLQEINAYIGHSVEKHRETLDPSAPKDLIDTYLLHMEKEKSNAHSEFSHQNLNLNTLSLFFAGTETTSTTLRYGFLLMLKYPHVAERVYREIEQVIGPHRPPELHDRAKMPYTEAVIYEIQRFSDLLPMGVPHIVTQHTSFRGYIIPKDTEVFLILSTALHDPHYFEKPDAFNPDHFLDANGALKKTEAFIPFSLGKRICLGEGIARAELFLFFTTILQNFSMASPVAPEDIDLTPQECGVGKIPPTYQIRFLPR
EXPERIMENT SUMMARY: Reversible CYP inhibition in human liver microsomes
Assay type: in vitro ADME
EXPERIMENTAL CONTEXT: human, human liver microsomes, pH 7.4, CYP 2B6, 4.48 µM, 30-Minute Preincubation; read-out: Percent of Control Activity
ENDPOINT NAME: activity at 4.48 µM (%)
Numbers only, in %.

*Q* Which activity at 4.48 µM value is on record for COc1cccc2[nH]c(C(=O)N[C@@H](CC(C)C)C(=O)N[C@@H](C[C@@H]3CCNC3=O)C(=O)CO)cc12 [PF-00835231] ?
*A* 103

The values you see were collected from paper PMC8523698.
